# Subject of test: Amine oxidase [flavin-containing] B (Rattus norvegicus)
# Sequence (P19643 whole entry): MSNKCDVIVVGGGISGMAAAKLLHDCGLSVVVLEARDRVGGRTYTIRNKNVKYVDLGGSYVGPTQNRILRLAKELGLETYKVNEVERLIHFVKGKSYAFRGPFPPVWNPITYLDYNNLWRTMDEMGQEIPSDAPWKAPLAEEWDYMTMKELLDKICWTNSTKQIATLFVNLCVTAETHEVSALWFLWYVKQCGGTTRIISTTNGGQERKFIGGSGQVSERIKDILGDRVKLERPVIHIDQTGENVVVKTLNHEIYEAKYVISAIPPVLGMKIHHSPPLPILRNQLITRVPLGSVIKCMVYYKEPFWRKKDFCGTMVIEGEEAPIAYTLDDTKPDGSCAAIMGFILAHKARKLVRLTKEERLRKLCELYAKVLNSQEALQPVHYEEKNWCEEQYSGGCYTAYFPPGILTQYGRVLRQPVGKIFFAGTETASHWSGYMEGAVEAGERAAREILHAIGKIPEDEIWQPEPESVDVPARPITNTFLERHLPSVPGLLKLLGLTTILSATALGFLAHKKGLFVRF
Observation type: Ki (µM)
# number only, unit µM dropped from output

>>> df
                                   compound  scale_unit  result
0  Cn1c(N2N=C(c3ccccc3)CC2c2ccc(Cl)cc2)nc2ccccc2c1=O (stereo not given)          µM    18.4

In: Can you look up the measured Ki of Cn1c(N/N=C(/C=C/c2cccc(Cl)c2)c2ccccc2)nc2ccccc2c1=O for me?
Out: 0.16

In: I would be grateful if you could share the reported Ki for COc1ccc(C(/C=C/c2ccco2)=N\Nc2nc3ccccc3c(=O)n2C)cc1 .
Out: 90.5

In: Endpoint output: Ki of Cc1ccc(C(/C=C/c2cccs2)=N\Nc2nc3ccccc3c(=O)n2C)cc1 . Value?
Out: 188

In: Ki lookup needed for O=C(NCCN1CCOCC1)c1ccc(Cl)cc1 [MOCLOBEMIDE] , thanks.
Out: 10.2

---

# Subject of test: Amine oxidase [flavin-containing] A (Rattus norvegicus, UniProt P21396)
# Sequence (P21396 whole entry): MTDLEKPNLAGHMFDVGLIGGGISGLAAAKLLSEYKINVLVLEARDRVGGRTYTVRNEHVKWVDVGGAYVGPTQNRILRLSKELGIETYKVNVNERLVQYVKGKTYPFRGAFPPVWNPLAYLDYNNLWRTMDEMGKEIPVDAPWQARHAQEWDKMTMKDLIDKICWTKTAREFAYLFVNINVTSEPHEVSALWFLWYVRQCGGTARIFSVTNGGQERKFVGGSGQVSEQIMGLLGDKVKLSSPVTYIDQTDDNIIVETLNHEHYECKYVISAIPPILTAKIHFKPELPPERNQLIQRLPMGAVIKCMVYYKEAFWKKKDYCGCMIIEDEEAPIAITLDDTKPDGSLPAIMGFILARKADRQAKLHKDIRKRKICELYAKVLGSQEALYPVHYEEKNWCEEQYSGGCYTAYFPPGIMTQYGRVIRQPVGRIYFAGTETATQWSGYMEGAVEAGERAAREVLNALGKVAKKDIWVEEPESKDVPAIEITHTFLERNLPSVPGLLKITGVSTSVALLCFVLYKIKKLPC
Observation type: log10 Ki (log10 of the value in µM)
Note the log scale: values are log10 of Ki expressed in µM.

Worked examples, 3 compounds total:
>>> df
                                   compound  result
0  COc1ccc(C2=NN(c3nc4ccccc4c(=O)n3C)C(c3cccs3)C2)cc1 (stereo unspecified)    1.40
1  COc1ccc(C(/C=C/c2cccs2)=N\Nc2nc3ccccc3c(=O)n2C)cc1    2.27
2                  Cn1c(=S)[nH]c2ccccc2c1=O    1.48

In: Value lookup for log10 Ki; key = Cc1ccc(C2CC(c3ccccc3)=NN2c2nc3ccccc3c(=O)n2C)cc1 (stereo unspecified)
Out: 0.41

In: Please look up its log10 Ki: Cn1c(N2N=C(c3ccc(Cl)cc3)CC2c2cccs2)nc2ccccc2c1=O (stereo unspecified)
Out: 1.81

In: Recorded log10 Ki of Cn1c(N2N=C(c3ccc(Cl)cc3)CC2c2ccco2)nc2ccccc2c1=O (stereo unspecified) , please.
Out: 1.46

---

# collection of IC50 values tested on Amine oxidase [flavin-containing] A (Rattus norvegicus)
Respond with the bare value in µM.

Here are 3 compounds together with their reported answers.
In [3]: df
Out[3]:
                                   compound  observation_type  result
0  Cn1c(N2N=C(c3ccc(Cl)cc3)CC2c2ccco2)nc2ccccc2c1=O (stereo not drawn)              IC50     450
1  COc1ccc(C2=NN(c3nc4ccccc4c(=O)n3C)C(c3ccco3)C2)cc1 (stereo not drawn)              IC50     418
2                     Cn1c(NN)nc2ccccc2c1=O              IC50    37.4

In: Give the reported IC50 for COc1ccc(/C=C/C(=N/Nc2nc3ccccc3c(=O)n2C)c2ccccc2)cc1OC (system: Amine oxidase [flavin-containing] A (Rattus norvegicus)).
Out: 68

In: Lookup: IC50 / Amine oxidase [flavin-containing] A (Rattus norvegicus) / COc1ccc(/C=C/C(=N/Nc2nc3ccccc3c(=O)n2C)c2ccccc2)cc1
Out: 9.05

In: IC50 of Cn1c(N/N=C(/C=C/c2ccco2)c2ccc(Cl)cc2)nc2ccccc2c1=O on Amine oxidase [flavin-containing] A (Rattus norvegicus)?
Out: 31.6

---

# Tested on: Mus musculus
# Assay explanation: Anxiolytic activity in albino mouse assessed as total number of entries into arms at 100 mg/kg, ip by plus-maze test
# Assay type: functional
# Condition notes: route intraperitoneal
Response field class: enum, chosen by comparing arm entries against low bracket (below 4 entries), middle bracket (4 entries to below 5 entries), high bracket (5 entries or more)

>>> print(df.to_string())
                                   molecule  subject_of_test  classification
0  Cn1c(N/N=C(/C=C/c2ccc(Br)cc2)c2ccccc2)nc2ccccc2c1=O     Mus musculus     low bracket

In: Into which category would you place Cn1c(N2N=C(c3ccc(Cl)cc3)CC2c2cccs2)nc2ccccc2c1=O (configuration not stated) ?
Out: low bracket

In: Sort into band: Cn1c(N/N=C(/C=C/c2ccccc2)c2ccccc2)nc2ccccc2c1=O
Out: high bracket

---

# Subject of test: UniProtKB P21396
# Sequence (P21396 whole entry): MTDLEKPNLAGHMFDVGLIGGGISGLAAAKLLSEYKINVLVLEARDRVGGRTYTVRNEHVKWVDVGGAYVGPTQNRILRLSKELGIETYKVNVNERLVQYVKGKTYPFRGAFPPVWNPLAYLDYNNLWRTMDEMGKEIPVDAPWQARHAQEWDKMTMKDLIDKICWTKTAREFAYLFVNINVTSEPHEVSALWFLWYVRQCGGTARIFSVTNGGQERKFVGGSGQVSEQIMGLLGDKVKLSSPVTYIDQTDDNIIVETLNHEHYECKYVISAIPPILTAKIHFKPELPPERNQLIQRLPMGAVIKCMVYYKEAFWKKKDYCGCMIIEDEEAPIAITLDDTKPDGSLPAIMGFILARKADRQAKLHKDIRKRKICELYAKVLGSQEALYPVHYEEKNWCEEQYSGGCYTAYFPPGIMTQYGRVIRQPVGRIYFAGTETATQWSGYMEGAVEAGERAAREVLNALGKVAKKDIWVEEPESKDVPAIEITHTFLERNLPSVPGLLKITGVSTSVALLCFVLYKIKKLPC
pIC50: −log10 of the molar value.
Please mark yes (1) if the recorded pIC50 is equal to or greater than 5, and no (0) if it falls below.

Worked cases, answers included:
                                   compound   subject_of_test  classification
0  Cc1ccc(C2=NN(c3nc4ccccc4c(=O)n3C)C(c3cccs3)C2)cc1 (configuration not stated)  UniProtKB P21396          no (0)
1  COc1ccc(C(/C=C/c2ccco2)=N\Nc2nc3ccccc3c(=O)n2C)cc1  UniProtKB P21396          no (0)
2  Cn1c(N/N=C(/C=C/c2ccccc2)c2ccccc2)nc2ccccc2c1=O  UniProtKB P21396          no (0)
3  COc1ccc(C2=NN(c3nc4ccccc4c(=O)n3C)C(c3cccs3)C2)cc1 (configuration not stated)  UniProtKB P21396          no (0)
4  Cn1c(N2N=C(c3ccccc3)CC2c2cccc(Cl)c2)nc2ccccc2c1=O (configuration not stated)  UniProtKB P21396         yes (1)
5  Cn1c(N2N=C(c3ccccc3)CC2c2ccc(Br)cc2)nc2ccccc2c1=O (configuration not stated)  UniProtKB P21396         yes (1)

Next:
In: Could you verify whether the entry Cn1c(=S)[nH]c2ccccc2c1=O shows pIC50 of no less than 5?
Out: yes (1)

---

# Test system: Mus musculus
# Assay explanation: Anxiolytic activity in albino mouse assessed as total number of entries into arms at 100 mg/kg, ip by plus-maze test
# Type: functional
# Condition notes: route intraperitoneal
Observation type: arm entries (entries)
Just the number in entries, nothing appended.

These recorded examples may help you get a feel for the data.
>>> df
                                   compound  observation_type  scale_unit  result
0  COc1ccc(C2=NN(c3nc4ccccc4c(=O)n3C)C(c3cccs3)C2)cc1 (centres undefined)       arm entries     entries    5.13
1  Cc1ccc(/C=C/C(=N/Nc2nc3ccccc3c(=O)n2C)c2ccccc2)cc1       arm entries     entries    6.37
2  COc1ccc(/C=C/C(=N/Nc2nc3ccccc3c(=O)n2C)c2ccccc2)cc1       arm entries     entries     4.5
3  Cc1ccc(C(/C=C/c2cccs2)=N\Nc2nc3ccccc3c(=O)n2C)cc1       arm entries     entries    5.57
4  Cn1c(N2N=C(c3ccccc3)CC2c2ccc(Br)cc2)nc2ccccc2c1=O (centres undefined)       arm entries     entries    3.25
5  Cn1c(N/N=C(/C=C/c2ccc(Cl)cc2)c2ccccc2)nc2ccccc2c1=O       arm entries     entries    2.51
6  CCOc1ccc(/C=C/C(=N/Nc2nc3ccccc3c(=O)n2C)c2ccccc2)cc1       arm entries     entries    5.75
7  COc1ccc(C(/C=C/c2ccco2)=N\Nc2nc3ccccc3c(=O)n2C)cc1       arm entries     entries    4.63

# input for lookup
In: Which value of arm entries has been reported for COc1ccc(C2CC(c3ccccc3)=NN2c2nc3ccccc3c(=O)n2C)cc1 (centres undefined) in the records?
Out: 5.37
